Below, each of the compounds is paired with its reported Inhibition value.
Tested on: HepG2
test.details: GSK_TCMDC: Percent inhibition of human HepG2 cell line. Test compounds present at 10uM.
Format: functional

compound | Inhibition [%]
CC(=O)c1c(Nc2c(C)cc(C)cc2C)oc(C)cc1=O | 7
Cc1ccc(C(=O)Nc2cc(S(=O)(=O)N3CCCC3)ccc2OCC(F)(F)F)cc1 | 0
COc1ccc(-c2nc(NC(=O)CS(=O)(=O)c3ccccc3)sc2C)cc1 | 7
COc1ccc2nccc(N3CCC(CCNCc4ccc5c(n4)NC(=O)CO5)CC3)c2n1.Cl | 19
CCc1cc(OC)c(C(=O)NC2CCN(C[C@H](O)c3ccnc4ccc(OC)cc34)CC2)cc1Br | 6
Cc1cc(=O)c(-c2ccc(Oc3cccc(Cl)c3)cc2)c(C)[nH]1 | 23
O=C(Cc1ccc([N+](=O)[O-])cc1)N1CCc2cc3nccc(N4CCN5CCC[C@@H]5C4)c3cc21 | 0
Cc1noc(-c2cccs2)c1C(=O)NC(C)c1cccc2ccccc12 (centres undefined) | 0
Cc1c(Cc2ccc(F)cc2)c(Cl)nc2nc(N)nc(N)c12 | 66
CN1CCC(NCc2ccc(-c3ccc(Cl)cc3)cc2)CC1 | 50
COc1ccc(F)cc1-c1ccc(C(=O)N2CCCN(c3ccc(C#N)cn3)CC2)cc1 | 9
O=C(O)C(F)(F)F.OCC1CCN(Cc2ccc(-c3ccc(-c4nc5cc(F)ccc5[nH]4)s3)cc2)CC1 | 14
O=C(Nc1cccc(CN2CCCN(Cc3ccc(O)cc3)CC2)c1)c1cc2ccccc2o1.O=C(O)C(F)(F)F | 10
Cn1nccc1C(=O)NCCNCc1cccc(-c2cccc(-c3nc4cc(C(F)(F)F)ccc4[nH]3)c2)c1.O=C(O)C(F)(F)F | 39

meta.source: ChEMBL document CHEMBL1157539
